We begin with a simple list: items and their reported mortality at 24 h, 10 ug/mL.
experiment: Toxicity against Artemia salina assessed as mortality rate at 10 ug/mL after 24 hrs by small modified microtiter-plate method; assay type: organism-based; details: in vivo, read-out: Activity
Parameter measured: mortality at 24 h, 10 ug/mL (%)

> print(dat)
                         chemical.structure           parameter.measured  reading
1  CC[C@H](C)/C=C/C1=CC2=C(Cl)C(=O)[C@@]3(C)O[C@]4(O)[C@H](C)[C@@H](C)OC(=O)[C@@H]4[C@H]3C2=CO1  mortality at 24 h, 10 ug/mL     75.2
2  C[C@H](/C=C/C1=CC2=C(Cl)C(=O)[C@@]3(C)O[C@]4(O)[C@H](C)[C@@H](C)OC(=O)[C@@H]4[C@H]3C2=CO1)[C@@H](C)O  mortality at 24 h, 10 ug/mL     78.3
3  C/C1=C\[C@@H](C)C/C=C/[C@H]2[C@@H]3O[C@]3(C)[C@@H](C)[C@H]3[C@H](Cc4c[nH]c5ccccc45)NC(=O)[C@]32C(=O)/C=C/C(=O)[C@@H]1O  mortality at 24 h, 10 ug/mL     83.4
4  C/C1=C\[C@@H](C)C/C=C/[C@H]2[C@@H]3O[C@]3(C)[C@@H](C)[C@H]3[C@H](Cc4c[nH]c5ccccc45)NC(=O)[C@]32C(=O)CCC(=O)C1=O  mortality at 24 h, 10 ug/mL     75.3
